I'd appreciate it if you could supply relative viability values for the items below.
System: SW 900
Assay: relative viability (nuclei count vs DMSO), 5 days (fraction); higher = more cells survive
Details: first compound 0.01 µM
Answer field: number only, no words.

Looking up O=c1cc(N2CCOCC2)oc2c(-c3cccc4c3sc3ccccc34)cccc12 + Cc1cc(Nc2cc(N3CCN(C)CC3)nc(Sc3ccc(NC(=O)C4CC4)cc3)n2)n[nH]1 [Tozasertib] (partner 0.1 µM) , I see its relative viability listed as 0.505

Looking up CCN(CC)CCCCNc1ncc2cc(-c3cc(OC)cc(OC)c3)c(NC(=O)NC(C)(C)C)nc2n1 + CCNC(=O)c1noc(-c2cc(C(C)C)c(O)cc2O)c1-c1ccc(CN2CCOCC2)cc1 [Luminespib] (partner 0.01 µM) , I see its relative viability listed as 0.172

Looking up O=c1cc(N2CCOCC2)oc2c(-c3cccc4c3sc3ccccc34)cccc12 + COc1cccc2cc(-c3nc([C@H]4CC[C@H](C(=O)O)CC4)n4ncnc(N)c34)[nH]c12 [OSI-027] (partner 0.5 µM) , I see its relative viability listed as 0.565

###

I'd appreciate it if you could supply relative viability values for the items below.
System: HCC-827
Test: relative viability (nuclei count vs DMSO), 5 days (fraction); higher = more cells survive
Settings: first compound 0.8 µM

Looking up O=c1cc(-c2cccc3c2Sc2ccccc2S3)oc(N2CCOCC2)c1 + O=C(CCCCCCC(=O)Nc1ccccc1)NO [Vorinostat] (partner 1 µM) , I see its relative viability listed as 0.77

Looking up O=c1cc(-c2cccc3c2Sc2ccccc2S3)oc(N2CCOCC2)c1 + COc1cc2c(Oc3ccc(NC(=O)C4(C(=O)Nc5ccc(F)cc5)CC4)cc3F)ccnc2cc1OCCCN1CCOCC1 [Foretinib] (partner 0.25 µM) , I see its relative viability listed as 1.07

Looking up O=c1cc(-c2cccc3c2Sc2ccccc2S3)oc(N2CCOCC2)c1 + CC(=O)c1c(C)c2cnc(Nc3ccc(N4CCNCC4)cn3)nc2n(C2CCCC2)c1=O [Palbociclib] (partner 0.5 µM) , I see its relative viability listed as 0.444

###

Tested on: A-427
Assay: relative viability (nuclei count vs DMSO), 5 days (fraction); higher = more cells survive
Settings: first compound 0.8 µM
I'd appreciate it if you could supply relative viability values for the items below.
Answer field: number only, no words.

Looking up O=c1cc(-c2cccc3c2Sc2ccccc2S3)oc(N2CCOCC2)c1 + Nc1nc2[nH]cc(CCc3ccc(C(=O)N[C@@H](CCC(=O)O)C(=O)O)cc3)c2c(=O)[nH]1 [Pemetrexed] (partner 0.2 µM) , I see its relative viability listed as 0.991

Looking up COc1nc(C)cnc1NS(=O)(=O)c1cccnc1-c1ccc(-c2nnco2)cc1 [Zibotentan] + Nc1ncn([C@H]2C[C@H](O)[C@@H](CO)O2)c(=O)n1 [Decitabine] (partner 2 µM) , I see its relative viability listed as 0.613

Looking up O=c1cc(-c2cccc3c2Sc2ccccc2S3)oc(N2CCOCC2)c1 + CCNC(=O)c1noc(-c2cc(C(C)C)c(O)cc2O)c1-c1ccc(CN2CCOCC2)cc1 [Luminespib] (partner 0.01 µM) , I see its relative viability listed as 1.01

###

System: SK-LU-1
Experiment: relative viability (nuclei count vs DMSO), 5 days (fraction); higher = more cells survive
Details: first compound 2.53 µM
I'd appreciate it if you could supply relative viability values for the items below.
Answer field: number only, no words.

Looking up COc1nc(C)cnc1NS(=O)(=O)c1cccnc1-c1ccc(-c2nnco2)cc1 [Zibotentan] + CS(=O)(=O)N1CCN(Cc2cc3nc(-c4cccc5[nH]ncc45)nc(N4CCOCC4)c3s2)CC1 [Pictilisib] (partner 1 µM) , I see its relative viability listed as 0.54

Looking up O=c1cc(-c2cccc3c2Sc2ccccc2S3)oc(N2CCOCC2)c1 + O=C(CCCCCCC(=O)Nc1ccccc1)NO [Vorinostat] (partner 1 µM) , I see its relative viability listed as 0.709

Looking up O=c1cc(-c2cccc3c2Sc2ccccc2S3)oc(N2CCOCC2)c1 + CC(=O)c1c(C)c2cnc(Nc3ccc(N4CCNCC4)cn3)nc2n(C2CCCC2)c1=O [Palbociclib] (partner 0.5 µM) , I see its relative viability listed as 0.327
